- measuredOn: CK1α (Homo sapiens, UniProt P48729+Q96SW2)
- Construct: CSNK1A1-HiBit KI HEK293(LgBit) Cells; host or cells: HEK293(LgBit) knock-in cells
- Sequence (P48729 whole entry): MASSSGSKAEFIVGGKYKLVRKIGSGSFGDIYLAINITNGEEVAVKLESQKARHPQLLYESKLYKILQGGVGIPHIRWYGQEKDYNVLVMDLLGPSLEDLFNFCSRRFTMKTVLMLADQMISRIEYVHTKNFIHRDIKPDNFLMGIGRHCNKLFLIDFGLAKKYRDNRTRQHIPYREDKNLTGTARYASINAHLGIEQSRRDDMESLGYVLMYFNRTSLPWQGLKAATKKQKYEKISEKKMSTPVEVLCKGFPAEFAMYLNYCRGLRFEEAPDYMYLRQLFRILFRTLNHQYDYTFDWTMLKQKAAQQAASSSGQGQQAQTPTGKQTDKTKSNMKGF
- Sequence (Q96SW2 whole entry): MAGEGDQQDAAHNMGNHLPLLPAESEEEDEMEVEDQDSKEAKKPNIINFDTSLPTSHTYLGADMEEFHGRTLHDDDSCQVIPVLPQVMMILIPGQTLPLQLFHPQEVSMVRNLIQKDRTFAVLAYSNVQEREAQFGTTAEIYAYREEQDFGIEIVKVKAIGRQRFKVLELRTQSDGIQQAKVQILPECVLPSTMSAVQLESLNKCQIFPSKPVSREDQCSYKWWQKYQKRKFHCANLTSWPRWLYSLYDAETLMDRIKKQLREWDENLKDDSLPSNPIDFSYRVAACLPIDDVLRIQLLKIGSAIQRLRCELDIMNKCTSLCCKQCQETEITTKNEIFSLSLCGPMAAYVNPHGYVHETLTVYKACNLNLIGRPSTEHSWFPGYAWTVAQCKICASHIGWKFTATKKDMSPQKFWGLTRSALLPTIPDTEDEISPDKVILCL
- Sequence (Q16531 whole entry partner): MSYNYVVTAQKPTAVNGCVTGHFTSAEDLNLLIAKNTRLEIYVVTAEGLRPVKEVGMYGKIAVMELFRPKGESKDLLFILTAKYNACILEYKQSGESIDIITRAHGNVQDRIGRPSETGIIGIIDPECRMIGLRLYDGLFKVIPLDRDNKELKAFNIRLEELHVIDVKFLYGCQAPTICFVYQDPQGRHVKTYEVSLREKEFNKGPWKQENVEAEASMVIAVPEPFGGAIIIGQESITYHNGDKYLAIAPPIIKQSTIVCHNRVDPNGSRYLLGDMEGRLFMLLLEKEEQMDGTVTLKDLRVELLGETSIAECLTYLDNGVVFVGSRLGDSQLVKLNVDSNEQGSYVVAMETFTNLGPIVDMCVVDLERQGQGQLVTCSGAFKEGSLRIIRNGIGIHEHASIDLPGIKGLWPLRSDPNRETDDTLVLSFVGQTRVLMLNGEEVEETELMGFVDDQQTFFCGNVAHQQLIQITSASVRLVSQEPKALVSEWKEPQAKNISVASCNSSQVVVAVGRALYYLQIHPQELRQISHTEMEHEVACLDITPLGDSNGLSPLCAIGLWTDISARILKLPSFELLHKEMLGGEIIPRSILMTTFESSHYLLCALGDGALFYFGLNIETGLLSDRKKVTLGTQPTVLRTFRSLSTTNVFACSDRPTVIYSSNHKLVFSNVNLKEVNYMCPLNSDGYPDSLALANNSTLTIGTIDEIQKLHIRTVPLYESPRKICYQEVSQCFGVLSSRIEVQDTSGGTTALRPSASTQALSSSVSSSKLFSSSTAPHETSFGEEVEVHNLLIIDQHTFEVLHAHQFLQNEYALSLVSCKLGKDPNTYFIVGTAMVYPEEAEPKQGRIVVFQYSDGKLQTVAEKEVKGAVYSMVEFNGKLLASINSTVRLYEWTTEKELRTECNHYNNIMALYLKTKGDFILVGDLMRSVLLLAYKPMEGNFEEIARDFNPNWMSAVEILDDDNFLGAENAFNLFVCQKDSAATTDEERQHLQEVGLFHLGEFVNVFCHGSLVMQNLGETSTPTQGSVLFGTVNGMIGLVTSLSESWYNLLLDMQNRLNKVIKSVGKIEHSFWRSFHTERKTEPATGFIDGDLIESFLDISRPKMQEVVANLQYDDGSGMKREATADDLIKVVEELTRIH
- methodNotes: HiBiT degradation assay, CK1α, Procedure A
- Assay type: cell-based
- conditionSet: six hours incubation
reportedMetric: DC50

{"compound": "Cn1cc(-c2ccc3c(c2)CN(C2CCC(=O)NC2=O)C3=O)nc1-c1ccc(C(F)(F)F)cc1 (stereo not drawn)", "DC50": "< 0.025 µM"}
{"compound": "COc1ccc(Cl)c(-c2c(-c3ccc4c(c3)CN(C3CCC(=O)NC3=O)C4=O)ncn2C)c1 (stereo not drawn)", "DC50": "< 0.025 µM"}
{"compound": "Cc1nc(-c2ccc3c(c2)CN(C2CCC(=O)NC2=O)C3=O)c(-c2ccccc2)o1 (stereo not drawn)", "DC50": "< 0.025 µM"}
{"compound": "Cn1cnc(-c2ccc3c(c2)CN(C2CCC(=O)NC2=O)C3=O)c1-c1cc(Cl)ccc1F (stereo not drawn)", "DC50": "< 0.025 µM"}

Please state DC50 for every compound in the list that follows.
1. O=C1CCC(N2Cc3cc(-c4c[nH]nc4-c4ccncc4)ccc3C2=O)C(=O)N1 (stereo not drawn)
2. Cn1cnc(-c2ccc3c(c2)CN(C2CCC(=O)NC2=O)C3=O)c1-c1ccc(C#N)cc1F (stereo not drawn)
3. Cn1cnc(-c2ccccc2)c1-c1ccc2c(c1)CN(C1CCC(=O)NC1=O)C2=O (stereo not drawn)
4. CN(C)C(=O)c1cccc(-c2c(-c3ccc4c(c3)CN(C3CCC(=O)NC3=O)C4=O)ncn2C)c1 (stereo not drawn)
5. Cn1cnc(-c2ccc3c(c2)CN(C2CCC(=O)NC2=O)C3=O)c1-c1cccc(N2CCCCC2)c1 (stereo not drawn)

1: ≥ 0.025 µM; 2: < 0.025 µM; 3: ≥ 0.025 µM; 4: ≥ 0.025 µM; 5: < 0.025 µM

* * *

For each record, write down the corresponding DC50.
- measuredOn: GSPT1 (Homo sapiens, UniProt P15170+Q96SW2)
- Sequence (P15170 whole entry): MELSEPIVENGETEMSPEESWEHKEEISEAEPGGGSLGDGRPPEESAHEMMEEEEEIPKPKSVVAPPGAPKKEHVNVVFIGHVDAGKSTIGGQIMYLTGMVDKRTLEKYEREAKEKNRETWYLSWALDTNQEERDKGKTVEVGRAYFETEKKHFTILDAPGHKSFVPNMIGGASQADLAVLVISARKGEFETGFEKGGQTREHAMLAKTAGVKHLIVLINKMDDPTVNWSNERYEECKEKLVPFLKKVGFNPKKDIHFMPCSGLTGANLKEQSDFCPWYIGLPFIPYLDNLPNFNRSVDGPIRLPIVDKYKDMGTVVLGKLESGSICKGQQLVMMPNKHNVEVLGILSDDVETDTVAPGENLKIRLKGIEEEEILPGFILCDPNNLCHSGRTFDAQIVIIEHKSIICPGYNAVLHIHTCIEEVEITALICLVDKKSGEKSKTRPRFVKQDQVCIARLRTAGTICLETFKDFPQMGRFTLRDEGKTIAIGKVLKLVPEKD
- Sequence (Q96SW2 whole entry): as the sequence (Q96SW2 whole entry) above
- Sequence (Q16531 whole entry partner): as the sequence (Q16531 whole entry partner) above
- methodNotes: HiBiT degradation assay, GSPT1, Procedure A
- Type: cell-based
- Design: HiBit-GSPT1 KI HEK293(LgBit) Cells; host or cells: HEK293(LgBit) knock-in cells
- conditionSet: six hours incubation

{"compound": "Cn1cnc(-c2ccc3c(c2)CN(C2CCC(=O)NC2=O)C3=O)c1-c1ccc(N2CCOCC2)cc1 (centres unmarked) [Example 353]", "measuredOn": "GSPT1 (Homo sapiens, UniProt P15170+Q96SW2)", "DC50": "< 25 nM"}
{"compound": "Cc1cc(-c2c(-c3ccc4c(c3)CN(C3CCC(=O)NC3=O)C4=O)cnn2C)ccn1 (centres unmarked) [Example 368]", "measuredOn": "GSPT1 (Homo sapiens, UniProt P15170+Q96SW2)", "DC50": "< 25 nM"}
{"compound": "Cn1ncc(-c2ccc3c(c2)CN(C2CCC(=O)NC2=O)C3=O)c1C1CC1 (centres unmarked) [Example 116]", "measuredOn": "GSPT1 (Homo sapiens, UniProt P15170+Q96SW2)", "DC50": "≥ 25 nM"}
{"compound": "COc1ccc(-c2c(-c3ccc4c(c3)CN(C3CCC(=O)NC3=O)C4=O)ncn2C)cc1Cl (centres unmarked) [Example 276]", "measuredOn": "GSPT1 (Homo sapiens, UniProt P15170+Q96SW2)", "DC50": "< 25 nM"}

Reported DC50 (GSPT1 (Homo sapiens, UniProt P15170+Q96SW2)) for entry CN1CCN(Cc2cccc(-c3c(-c4ccc5c(c4)CN(C4CCC(=O)NC4=O)C5=O)ncn3C)c2)CC1 (centres unmarked) [Example 312] is ≥ 25 nM
